target-of-assay: progesterone receptor (Oryctolagus cuniculus, UniProt P06186)
Construct: 'Rabbit, progesterone = 100%; from tissue; host or cells: Rabbit; From own knowledge, the cited Philibert procedure uses uterine cytosol
Sequence (P06186 1-930): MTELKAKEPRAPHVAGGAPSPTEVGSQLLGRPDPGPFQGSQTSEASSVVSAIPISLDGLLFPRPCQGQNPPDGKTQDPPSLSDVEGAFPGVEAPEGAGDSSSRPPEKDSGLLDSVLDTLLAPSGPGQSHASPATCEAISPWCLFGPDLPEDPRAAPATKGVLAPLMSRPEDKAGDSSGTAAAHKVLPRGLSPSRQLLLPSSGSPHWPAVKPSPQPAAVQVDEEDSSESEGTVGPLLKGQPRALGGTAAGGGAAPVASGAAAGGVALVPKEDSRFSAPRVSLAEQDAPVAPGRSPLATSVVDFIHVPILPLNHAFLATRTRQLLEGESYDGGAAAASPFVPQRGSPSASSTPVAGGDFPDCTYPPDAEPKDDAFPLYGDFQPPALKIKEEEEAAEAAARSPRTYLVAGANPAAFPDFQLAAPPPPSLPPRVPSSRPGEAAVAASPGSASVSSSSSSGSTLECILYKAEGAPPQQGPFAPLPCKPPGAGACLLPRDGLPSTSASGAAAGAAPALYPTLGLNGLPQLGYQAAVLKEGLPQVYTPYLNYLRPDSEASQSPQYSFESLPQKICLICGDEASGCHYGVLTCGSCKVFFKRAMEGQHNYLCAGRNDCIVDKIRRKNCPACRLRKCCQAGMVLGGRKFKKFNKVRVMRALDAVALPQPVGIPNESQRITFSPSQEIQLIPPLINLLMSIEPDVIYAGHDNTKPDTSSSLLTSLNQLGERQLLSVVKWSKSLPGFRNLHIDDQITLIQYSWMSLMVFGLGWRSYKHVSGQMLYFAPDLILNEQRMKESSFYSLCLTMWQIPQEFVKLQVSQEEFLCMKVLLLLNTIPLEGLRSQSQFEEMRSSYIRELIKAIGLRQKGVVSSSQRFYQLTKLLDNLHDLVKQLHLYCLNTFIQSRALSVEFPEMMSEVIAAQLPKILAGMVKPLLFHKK
assay: progesterone receptor relative binding affinity (procedure of Philibert et al.)
protocol-conditions: Rabbit, progesterone = 100%

{"compound": "C#CC1(O)CCC2C3CCC4=CC5(CCC4C3C(C(F)F)CC21C)SCCS5 (stereo not drawn)", "Relative Binding Affinity' (%)": 92}
{"compound": "CC#CC1(OC)CCC2C3CCC4=CC(=O)CCC4C3C(=CF)CC21C (stereo not drawn)", "Relative Binding Affinity' (%)": 71}
{"compound": "C#C[C@]1(O)CC[C@H]2[C@@H]3CCC4=CC(=O)CC[C@@H]4[C@H]3/C(=C/F)C[C@@]21CC", "Relative Binding Affinity' (%)": 100}
{"compound": "CC#C[C@]1(O)CC[C@H]2[C@@H]3CCC4=CC(=O)CC[C@@H]4[C@H]3/C(=C/F)C[C@@]21C", "Relative Binding Affinity' (%)": 18}
{"compound": "C#C[C@]1(O)CC[C@H]2[C@@H]3CCC4=CC(=O)CC[C@@H]4[C@H]3/C(=C\\F)C[C@@]21C", "Relative Binding Affinity' (%)": 149}
{"compound": "C#C[C@]1(O)CC[C@H]2[C@@H]3CCC4=CCCC[C@@H]4[C@H]3[C@@H](C(F)F)C[C@@]21C", "Relative Binding Affinity' (%)": 2}
